Form field: pIC50 (one value per entry).
systemTested: DNA topoisomerase 2-alpha (Homo sapiens)
Sequence (P11388 whole entry): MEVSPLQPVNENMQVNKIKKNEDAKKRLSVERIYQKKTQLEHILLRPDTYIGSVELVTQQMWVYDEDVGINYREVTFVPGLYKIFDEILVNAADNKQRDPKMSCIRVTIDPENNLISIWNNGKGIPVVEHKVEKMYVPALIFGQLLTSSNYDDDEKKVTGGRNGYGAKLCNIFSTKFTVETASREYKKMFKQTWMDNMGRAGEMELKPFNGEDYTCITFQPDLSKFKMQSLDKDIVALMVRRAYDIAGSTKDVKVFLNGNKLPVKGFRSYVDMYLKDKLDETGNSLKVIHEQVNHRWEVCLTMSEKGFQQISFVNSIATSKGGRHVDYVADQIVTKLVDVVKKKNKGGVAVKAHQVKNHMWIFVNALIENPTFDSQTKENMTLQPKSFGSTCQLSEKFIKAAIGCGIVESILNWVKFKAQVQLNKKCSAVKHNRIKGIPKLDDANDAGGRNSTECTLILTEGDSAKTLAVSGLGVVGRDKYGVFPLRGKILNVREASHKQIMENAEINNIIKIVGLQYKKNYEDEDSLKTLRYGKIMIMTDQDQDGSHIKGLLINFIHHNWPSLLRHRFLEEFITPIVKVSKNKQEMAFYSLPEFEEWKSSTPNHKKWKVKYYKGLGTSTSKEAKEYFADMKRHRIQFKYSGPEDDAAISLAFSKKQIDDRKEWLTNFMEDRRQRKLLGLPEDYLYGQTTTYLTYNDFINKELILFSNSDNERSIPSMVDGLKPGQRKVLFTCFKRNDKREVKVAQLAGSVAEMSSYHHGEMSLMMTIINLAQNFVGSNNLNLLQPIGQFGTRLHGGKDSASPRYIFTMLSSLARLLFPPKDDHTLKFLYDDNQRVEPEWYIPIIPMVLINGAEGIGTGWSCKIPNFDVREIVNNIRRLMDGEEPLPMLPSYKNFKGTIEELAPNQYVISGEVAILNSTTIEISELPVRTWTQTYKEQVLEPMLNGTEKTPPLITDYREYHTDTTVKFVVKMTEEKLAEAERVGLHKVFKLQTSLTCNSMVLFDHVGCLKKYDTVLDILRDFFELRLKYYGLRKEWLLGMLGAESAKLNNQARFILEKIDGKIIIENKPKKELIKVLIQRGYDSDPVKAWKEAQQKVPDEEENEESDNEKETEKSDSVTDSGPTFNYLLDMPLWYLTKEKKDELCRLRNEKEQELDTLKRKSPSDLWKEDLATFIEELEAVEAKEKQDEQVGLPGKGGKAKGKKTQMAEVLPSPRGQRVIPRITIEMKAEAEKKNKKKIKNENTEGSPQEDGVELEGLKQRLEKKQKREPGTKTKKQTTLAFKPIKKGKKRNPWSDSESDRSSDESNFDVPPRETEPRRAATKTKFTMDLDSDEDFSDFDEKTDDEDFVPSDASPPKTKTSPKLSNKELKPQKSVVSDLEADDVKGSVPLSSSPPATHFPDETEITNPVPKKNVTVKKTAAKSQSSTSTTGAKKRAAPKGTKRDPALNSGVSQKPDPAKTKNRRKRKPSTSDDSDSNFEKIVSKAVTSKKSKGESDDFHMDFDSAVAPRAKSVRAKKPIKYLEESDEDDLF
pIC50: −log10 of the molar value.

smilesStructure | qualifyingSign | pIC50
CN(C)CCOc1ccc2c(ccc3c4c(nnc32)-c2ccccc2C4=O)c1 | < | 4.00
CN(C)CCOc1ccc2ccc3c4c(nnc3c2c1)-c1ccccc1C4=O | = | 5.26

###

Form field: ΔTm (one value per entry).
testProtocol: Binding affinity to 5'-dabcyl/3'-fluorescein labeled double stranded DNA (unknown origin) assessed as change in melting temperature at 10 uM by fluorescence assay
assayEndpoint: ΔTm (°C)

smilesStructure | assayEndpoint | numericReadout
CN(C)CCCOc1ccc2ccc3c4c(nnc3c2c1)-c1ccccc1C4=O | ΔTm | 1.96
CN(C)CCOc1ccc2ccc3c4c(nnc3c2c1)-c1ccccc1C4=O | ΔTm | 5.27
O=C(NCCCCN1CCCCC1)c1ccc2nnc3c(c2c1)C(=O)c1ccccc1-3 | ΔTm | 0.9
CN(C)CCCNC(=O)c1ccc2nnc3c(c2c1)C(=O)c1ccccc1-3 | ΔTm | 1.95
CCN(CC)CCCCNC(=O)c1ccc2nnc3c(c2c1)C(=O)c1ccccc1-3 | ΔTm | 0.53
COc1ccc2cc3[n+](cc2c1OC)CCc1cc2c(cc1-3)OCO2 | ΔTm | 0.34
CN(C)CCCCNC(=O)c1ccc2nnc3c(c2c1)C(=O)c1ccccc1-3 | ΔTm | 2.7
CN(C)CCCOc1ccc2c(ccc3c4c(nnc32)-c2ccccc2C4=O)c1 | ΔTm | 0.85
CN(C)CCNC(=O)c1ccc2nnc3c(c2c1)C(=O)c1ccccc1-3 | ΔTm | 1.19

###

testProtocol: Binding affinity to 5'-dabcyl/3'-fluorescein labeled cKit G-quadruplex DNA (unknown origin) assessed as change in melting temperature at 10 uM by fluorescence assay
Entries get a class label from measured ΔTm. See ranges: class 0 = under 7 °C, class 1 = from 7 °C up to 10 °C, class 2 = 10 °C and over

smilesStructure | className
O=C(NCCCCN1CCCCC1)c1ccc2nnc3c(c2c1)C(=O)c1ccccc1-3 | class 0
CN(C)CCOc1ccc2ccc3c4c(nnc3c2c1)-c1ccccc1C4=O | class 2
CN(C)CCCOc1ccc2ccc3c4c(nnc3c2c1)-c1ccccc1C4=O | class 2
O=C(NCCCCN1CCOCC1)c1ccc2nnc3c(c2c1)C(=O)c1ccccc1-3 | class 0
CN(C)CCCNC(=O)c1ccc2nnc3c(c2c1)C(=O)c1ccccc1-3 | class 1
CN(C)CCCCNC(=O)c1ccc2nnc3c(c2c1)C(=O)c1ccccc1-3 | class 2
CN(C)CCOc1ccc2c(ccc3c4c(nnc32)-c2ccccc2C4=O)c1 | class 1
COc1ccc2cc3[n+](cc2c1OC)CCc1cc2c(cc1-3)OCO2 | class 2
CN(C)CCCOc1ccc2c(ccc3c4c(nnc32)-c2ccccc2C4=O)c1 | class 2
CCN(CC)CCCCNC(=O)c1ccc2nnc3c(c2c1)C(=O)c1ccccc1-3 | class 0

###

testProtocol: Binding affinity to cKit G-quadruplex DNA (unknown origin) assessed as compound concentration required for 30% displacement of thiazole orange from cKit G-quadruplex DNA by fluorescent intercalator displacement assay
Form field: Activity (one value per entry).

smilesStructure | qualifyingSign | Activity (µM)
COc1ccc2cc3[n+](cc2c1OC)CCc1cc2c(cc1-3)OCO2 | > | 10
CN(C)CCCOc1ccc2c(ccc3c4c(nnc32)-c2ccccc2C4=O)c1 | = | 1.5
CN(C)CCCOc1ccc2ccc3c4c(nnc3c2c1)-c1ccccc1C4=O | = | 0.95
CN(C)CCOc1ccc2ccc3c4c(nnc3c2c1)-c1ccccc1C4=O | = | 0.47
CN(C)CCOc1ccc2c(ccc3c4c(nnc32)-c2ccccc2C4=O)c1 | = | 2.08
CN(C)CCCn1c(=O)c2nc3ccccc3nc2c2ccccc21 | = | 3.57

###

Form field: ΔTm (one value per entry).
Species: Homo sapiens
testProtocol: Binding affinity to 5'-dabcyl/3'-fluorescein labeled human telomeric sequence G-quadruplex DNA assessed as change in melting temperature at 10 uM by fluorescence assay
assayEndpoint: ΔTm (°C)

smilesStructure | numericReadout
CN(C)CCNC(=O)c1ccc2nnc3c(c2c1)C(=O)c1ccccc1-3 | 5.95
O=C(NCCCCN1CCCCC1)c1ccc2nnc3c(c2c1)C(=O)c1ccccc1-3 | 6.63
CN(C)CCOc1ccc2c(ccc3c4c(nnc32)-c2ccccc2C4=O)c1 | 5.69
CN(C)CCCOc1ccc2c(ccc3c4c(nnc32)-c2ccccc2C4=O)c1 | 16.1
CN(C)CCCCNC(=O)c1ccc2nnc3c(c2c1)C(=O)c1ccccc1-3 | 9.35

###

Species: Homo sapiens
testProtocol: Binding affinity to 5'-dabcyl/3'-fluorescein labeled human telomeric sequence G-quadruplex DNA assessed as change in melting temperature at 10 uM by fluorescence assay

smilesStructure | ΔTm [°C]
CN(C)CCCNC(=O)c1ccc2nnc3c(c2c1)C(=O)c1ccccc1-3 | 7.91
CN(C)CCCOc1ccc2ccc3c4c(nnc3c2c1)-c1ccccc1C4=O | 20.8
O=C(NCCCCN1CCOCC1)c1ccc2nnc3c(c2c1)C(=O)c1ccccc1-3 | 4.82
CN(C)CCOc1ccc2ccc3c4c(nnc3c2c1)-c1ccccc1C4=O | 25.6
COc1ccc2cc3[n+](cc2c1OC)CCc1cc2c(cc1-3)OCO2 | 9.68
CCN(CC)CCCCNC(=O)c1ccc2nnc3c(c2c1)C(=O)c1ccccc1-3 | 3.77

###

Species on record: Homo sapiens
testProtocol: Binding affinity to human telomeric 22 G-quadruplex DNA assessed as compound concentration required for 30% displacement of thiazole orange from telomeric 22 G-quadruplex DNA by fluorescent intercalator displacement assay
Calls of active or inactive are those of the source. The calls are words filed in the database; no cut-off is given here.
assayEndpoint: Activity

smilesStructure | result
CN(C)CCCn1c(=O)c2nc3ccccc3nc2c2ccccc21 | inactive
CN(C)CCCOc1ccc2c(ccc3c4c(nnc32)-c2ccccc2C4=O)c1 | 4.75 µM
CN(C)CCOc1ccc2ccc3c4c(nnc3c2c1)-c1ccccc1C4=O | 0.52 µM
CN(C)CCOc1ccc2c(ccc3c4c(nnc32)-c2ccccc2C4=O)c1 | inactive
COc1ccc2cc3[n+](cc2c1OC)CCc1cc2c(cc1-3)OCO2 | > 10 µM
CN(C)CCCOc1ccc2ccc3c4c(nnc3c2c1)-c1ccccc1C4=O | 2.43 µM
